Provenance of the data: patent US20210230570

- experimentalTarget: Factor X (FX), P00742
- Sequence (P00742 whole entry, looked up): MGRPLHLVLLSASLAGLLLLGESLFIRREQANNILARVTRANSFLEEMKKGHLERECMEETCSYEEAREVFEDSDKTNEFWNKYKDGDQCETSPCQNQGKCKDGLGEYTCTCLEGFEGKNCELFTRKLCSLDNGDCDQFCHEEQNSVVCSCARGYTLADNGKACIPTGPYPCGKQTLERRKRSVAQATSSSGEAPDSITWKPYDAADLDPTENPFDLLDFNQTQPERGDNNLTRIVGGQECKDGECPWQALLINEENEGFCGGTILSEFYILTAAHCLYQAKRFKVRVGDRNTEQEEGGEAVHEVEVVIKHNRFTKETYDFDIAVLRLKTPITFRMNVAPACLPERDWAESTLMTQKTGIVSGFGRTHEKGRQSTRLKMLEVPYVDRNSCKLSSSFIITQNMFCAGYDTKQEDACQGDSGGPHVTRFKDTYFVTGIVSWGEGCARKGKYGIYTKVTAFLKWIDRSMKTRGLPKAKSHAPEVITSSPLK
So I've got a bunch of proteins here, and I need their KM values.
Just the number in µM, nothing appended.

Prompt: Complete the entry with KM for FIXa-N260S/R318Y/R338E/T343R/R403E/E410N (protein) chain 1: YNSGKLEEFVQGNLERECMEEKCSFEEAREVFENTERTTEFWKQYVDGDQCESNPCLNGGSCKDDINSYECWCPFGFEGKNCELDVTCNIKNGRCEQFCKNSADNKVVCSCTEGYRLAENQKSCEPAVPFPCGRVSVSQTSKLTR chain 2: VVGGEDAKPGQFPWQVVLNGKVDAFCGGSIVNEKWIVTAAHCVETGVKITVVAGEHNIEETEHTEQKRNVIRIIPHHNYSAAINKYNHDIALLELDEPLVLNSYVTPICIADKEYTNIFLKFGSGYVSGWGRVFHKGYSALVLQYLRVPLVDRATCLESTKFRIYNNMFCAGFHEGGRDSCQGDSGGPHVTEVEGTSFLTGIISWGEECAMKGKYGIYTKVSEYVNWIKNKTKLT
Completion: 0.0321

Prompt: Complete the entry with KM for FIXa-Y155F/R318Y/R338E/T343R/R403E/E410N (protein) chain 1: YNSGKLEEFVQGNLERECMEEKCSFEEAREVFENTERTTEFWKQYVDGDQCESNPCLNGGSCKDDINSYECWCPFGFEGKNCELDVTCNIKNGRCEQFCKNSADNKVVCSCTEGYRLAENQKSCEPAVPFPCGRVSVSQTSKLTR chain 2: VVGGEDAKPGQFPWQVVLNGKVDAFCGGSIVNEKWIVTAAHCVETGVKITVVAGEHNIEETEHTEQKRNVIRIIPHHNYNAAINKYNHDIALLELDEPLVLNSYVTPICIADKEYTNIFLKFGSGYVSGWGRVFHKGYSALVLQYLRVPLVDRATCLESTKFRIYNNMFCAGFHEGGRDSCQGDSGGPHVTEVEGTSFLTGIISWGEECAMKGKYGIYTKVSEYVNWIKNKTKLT
Completion: 0.0272

Prompt: Complete the entry with KM for FIXa-R338E/T343R/R403E/E410N (protein) chain 1: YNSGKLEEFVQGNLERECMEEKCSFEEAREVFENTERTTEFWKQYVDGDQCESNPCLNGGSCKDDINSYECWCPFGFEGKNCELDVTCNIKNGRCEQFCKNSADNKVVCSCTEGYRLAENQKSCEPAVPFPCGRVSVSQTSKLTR chain 2: VVGGEDAKPGQFPWQVVLNGKVDAFCGGSIVNEKWIVTAAHCVETGVKITVVAGEHNIEETEHTEQKRNVIRIIPHHNYNAAINKYNHDIALLELDEPLVLNSYVTPICIADKEYTNIFLKFGSGYVSGWGRVFHKGRSALVLQYLRVPLVDRATCLESTKFRIYNNMFCAGFHEGGRDSCQGDSGGPHVTEVEGTSFLTGIISWGEECAMKGKYGIYTKVSEYVNWIKNKTKLT
Completion: 0.0347

Prompt: Complete the entry with KM for FIXa-Y155F/K247N/N249S/R318Y/R338E/R403E (protein) chain 1: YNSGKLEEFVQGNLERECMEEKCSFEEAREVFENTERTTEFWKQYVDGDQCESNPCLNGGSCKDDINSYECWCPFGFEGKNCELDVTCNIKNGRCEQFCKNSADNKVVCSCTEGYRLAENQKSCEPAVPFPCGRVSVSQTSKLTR chain 2: VVGGEDAKPGQFPWQVVLNGKVDAFCGGSIVNEKWIVTAAHCVETGVKITVVAGEHNIEETEHTEQNRSVIRIIPHHNYNAAINKYNHDIALLELDEPLVLNSYVTPICIADKEYTNIFLKFGSGYVSGWGRVFHKGYSALVLQYLRVPLVDRATCLESTKFTIYNNMFCAGFHEGGRDSCQGDSGGPHVTEVEGTSFLTGIISWGEECAMKGKYGIYTKVSEYVNWIKEKTKLT
Completion: 0.0673
